# assay-target: SARS-CoV-2 nsp1_10-126 (Severe acute respiratory syndrome coronavirus 2)
# test-name: Thermal shift assay (TSA) by nanoDSF
# Type: binding
# applied-conditions: Ti (protein-fragment) − Ti (protein-DMSO); control Ti 54.05 °C in 2.0% DMSO; 4 mM fragment
measurement-kind: TSA ΔTi

Sample answers from the record:
C[C@H](N)c1ccc(Cl)cc1 [Fragment 7H2] | −0.50 °C
CNCc1csc(-c2cccc(Cl)c2)n1 [Fragment 11C6] | −0.27 °C
OCCNCc1ccccc1 [Fragment 8E6] | −1.33 °C

Okay, now this molecule:
Provide only the value of recorded TSA ΔTi for Nc1nc(-c2ccc(O)cc2)cs1 [Fragment 10B6] −2.79 °C

---

# assay-target: UniProt:P0C6X7
# test-name: biochemical
# Type: binding
measurement-kind: Kd (mM)
The response must be a number in mM with no trailing unit.

CNCc1csc(-c2cccc(Cl)c2)n1 [Fragment 11C6] | 0.38

Okay, now this compound:
Provide only the value of recorded Kd for CNCc1ccc(-c2cccs2)cc1 [Fragment 5E11] 12.8

---

Readings of Kd for the listed molecules
# assay-target: SARS-CoV-2 nsp1_10-126 (Severe acute respiratory syndrome coronavirus 2, UniProt P0DTD1)
# test-name: Microscale thermophoresis (MST) binding affinity
The response must be a number in mM with no trailing unit.

Provide only the value of recorded Kd for CNCc1ccc(-c2cccs2)cc1 0.48

Provide only the value of recorded Kd for CNCc1csc(-c2cccc(Cl)c2)n1 1.16

Provide only the value of recorded Kd for Nc1nc(-c2ccc(O)cc2)cs1 0.56

Provide only the value of recorded Kd for OCCNCc1ccccc1 8.32

---

# assay-target: SARS-CoV-2 nsp1_10-126 (Severe acute respiratory syndrome coronavirus 2)
# test-name: Thermal shift assay (TSA) by nanoDSF
# Type: binding
# applied-conditions: nanoDSF, 4 mM fragment, 2.0% DMSO, 1.25 mg/mL protein, n = 3; APUC = atypical protein unfolding curve
measurement-kind: TSA Ti ± SD

Sample answers from the record:
Nc1nc(-c2ccc(O)cc2)cs1 | 51.27 ± 0.15 °C
OCCNCc1ccccc1 | 52.72 ± 0.22 °C
C[C@H](N)c1ccc(Cl)cc1 | 53.55 ± 0.25 °C
CNCc1csc(-c2cccc(Cl)c2)n1 | 53.78 ± 0.05 °C

Okay, now this molecule:
Provide only the value of recorded TSA Ti ± SD for CNCc1ccc(-c2cccs2)cc1 APUC

---

# assay-target: SARS-CoV-2 nsp1_10-126 (Severe acute respiratory syndrome coronavirus 2)
# test-name: Microscale thermophoresis (MST) binding affinity
# applied-conditions: read-out: SARS-CoV-2 nsp1 MST, Kd
pKd: −log10 of the molar value.
measurement-kind: pKd

Given C[C@H](N)c1ccc(Cl)cc1 [Fragment 7H2] , report its pKd on SARS-CoV-2 nsp1_10-126 (Severe acute respiratory syndrome coronavirus 2). < 1.70
